Tested on: ACHN renal
Assay: NCI-60 one-dose screen, 48 h
Settings: 10 µM unless noted
About 83,000 compounds went through this panel and 20% of them were active in at least one assay; those are over-represented in the sample as a whole. Activity calls are given as the source filed them. How the source made its calls: active means growth percent below 10; inactive means the rest.
Labels: active, inactive

compound | measurement-target | label-class
Oc1c(C(Nc2cccc3ccccc23)c2ccccc2)ccc2cccnc12 (stereo not drawn) | ACHN renal | inactive
CS(=O)(=O)c1ccc(C(=O)Nc2ccc(Cl)c(-c3ccccn3)c2)c(Cl)c1 | ACHN renal | inactive
COCc1nc(NS(=O)(=O)c2ccc(N)cc2)nc(C)c1Br | ACHN renal | inactive
CC(C)(C)[Si](C)(C)OC1[C@@H](CNC(N)=O)O[C@@H](n2cnc3c(NC(=O)Nc4ccccc4)ncnc32)[C@H]1O[Si](C)(C)C(C)(C)C (stereo partly drawn) | ACHN renal | inactive
c1ccc2oc(-c3cnc4nonc4n3)cc2c1 | ACHN renal | inactive
CC(=O)Nc1ccc(/C=N/N2CCCCCC2)cc1 | ACHN renal | inactive
O=C1OC(/C=C/c2ccccc2)=NC/1=C/c1ccccc1[N+](=O)[O-] | ACHN renal | inactive
O=P(O)(O)C(O)(Cc1cccnc1)P(=O)(O)O | ACHN renal | inactive
COC(=O)C(Br)(C(=O)OC)C(Br)C(Br)C(Br)c1ccccc1 (stereo not drawn) | ACHN renal | active
CCn1c(=O)c(C(=O)NCCCO)c(O)c2ccccc21 | ACHN renal | inactive
CCCCCCCCCCCCCC | ACHN renal | inactive
CCCCCCCC/C=C\CCCCCCCC(=O)OCCCCCC | ACHN renal | inactive
CC1OC(n2c3ccccc3c3c4c(c5c6ccccc6[nH]c5c32)C(=O)N(CCN2CCOCC2)C4=O)CC(O)C1O (stereo not drawn) | ACHN renal | active
COc1cc2c(c(OC)c1O)C(=O)C(OC)C(c1ccc(O)c(O)c1)O2 (stereo not drawn) | ACHN renal | inactive
O=C1Nc2ccc(Br)cc2/C1=N/c1nc(-c2ccccc2)cs1 | ACHN renal | inactive
O=[N+]([O-])c1ccc(N/N=C/c2ccccc2O)nc1 | ACHN renal | inactive
c1ccc(-c2ccc(-c3ccccc3)[nH]2)cc1 | ACHN renal | inactive
FC(F)(F)c1nn[nH]n1 | ACHN renal | inactive
CCCCc1nc(Cl)c(C2CC(c3ccc(S(N)(=O)=O)cc3)=NN2c2cc(Cl)cc(Cl)c2)[nH]1 (stereo not drawn) | ACHN renal | inactive
O=C1CCCN1C(O)CCN(Cc1ccccc1)Cc1ccc(Cl)cc1 (stereo not drawn) | ACHN renal | inactive
O=C(N/N=C\c1cc(Br)ccc1O)c1ccncc1 | ACHN renal | inactive
CCOC(=O)c1cnc(SCC)nc1SC#N | ACHN renal | inactive
COc1cc2c(cc1OC)-c1cc(OC)c(OC)cc1C(CN(C)C)C2 (stereo not drawn) | ACHN renal | inactive

----------
Below: a set of entries, each annotated with reported growth.
Tested on: KM12 colon
Assay: NCI-60 one-dose screen, 48 h (100 = growth as untreated, 0 = no growth, -100 = all killed)
Settings: 10 µM unless noted
About 83,000 compounds went through this panel and 20% of them were active in at least one assay; those are over-represented in the sample as a whole.

molecule | growth, %
c1ccc(CCn2cccc2)nc1 | 103
CCCCOC(=O)c1cc(O)c(O)c(O)c1 | 69
CCCCSc1ncnc2c1ncn2C1CCCCO1 (stereo unspecified) | 108
Cc1cc(-c2ccc(N=Nc3c(S(=O)(=O)O)cc4cc(S(=O)(=O)O)cc(O)c4c3O)c(C)c2)ccc1N=Nc1c(S(=O)(=O)O)cc2cc(S(=O)(=O)O)cc(O)c2c1O | 114
CC1=C(O)C(=O)CC1 | 104
COc1cc(OC)c2sc(-c3ccc(-n4cncc4-c4ccc(OC)c(N)c4)cc3)nc2c1 | 77.7
O=C1CCCN1C1CCN2CCCc3cccc1c32 (stereo unspecified) | 109
COc1cc(/C=N/NC(=O)Cn2c(-c3ccc(C)o3)nc3ccccc32)ccc1OCc1ccccc1 | 85.1
C=CCN(CC#N)CC=C | 108
CCCCCN(CCCCC)C(=O)C(CCC(=O)O)NC(=O)c1ccc(Cl)c(Cl)c1 (stereo unspecified) | 114
CC(=O)Oc1c(Cl)c(Cl)c(Cl)c(Cl)c1Cl | 103

Data provenance is PubChem BioAssay (NCI).
